assay explanation: Drug level in HIV-infected Thai pregnant women serum at 400 mg, po bid initiated intrapartum in combination with 100 mg, po bid ritonavir measured 12 hrs post last dose
Assay type: ADME, organism-based
stated conditions: female, human, read-out: Drug uptake
reported endpoint: concentration at 12 h (ng/mL)
Numeric answer only, unit ng/mL assumed.

Request: // concentration at 12 h lookup, key: Cc1cccc(C)c1OCC(=O)N[C@@H](Cc1ccccc1)[C@@H](O)C[C@H](Cc1ccccc1)NC(=O)[C@H](C(C)C)N1CCCNC1=O [LOPINAVIR]
Response: 5180

* * *

assay explanation: Drug level in HIV-infected Thai pregnant women serum at 400 mg, po bid initiated intrapartum in combination with 100 mg, po bid ritonavir measured 2 hrs post last dose
Type: ADME, organism-based
stated conditions: female, human, read-out: Drug uptake
reported endpoint: concentration at 2 h (ng/mL)
API: value field is a number in ng/mL; no unit string.

Request: Can you share its concentration at 2 h? I mean this compound: Cc1cccc(C)c1OCC(=O)N[C@@H](Cc1ccccc1)[C@@H](O)C[C@H](Cc1ccccc1)NC(=O)[C@H](C(C)C)N1CCCNC1=O [LOPINAVIR]
Response: 10500

* * *

System: Serum
assay explanation: Ratio of drug level in 2 hrs to 30 days post last dose of HIV-infected Thai pregnant women serum at 100 mg, po bid initiated intrapartum in combination with 400 mg, po bid Lopinavir
Type: ADME, organism-based
stated conditions: human, in vivo
reported endpoint: Drug uptake
Form: value (number only, do not type unit).

Request: // lookup Drug uptake for CC(C)c1nc(CN(C)C(=O)N[C@H](C(=O)N[C@@H](Cc2ccccc2)C[C@H](O)[C@H](Cc2ccccc2)NC(=O)OCc2cncs2)C(C)C)cs1 [RITONAVIR]
Response: 0.76

* * *

assay explanation: Drug level in HIV-infected Thai pregnant women serum at 400 mg, po bid initiated intrapartum in combination with 100 mg, po bid ritonavir measured 4 hrs post last dose
Format: ADME, organism-based
stated conditions: female, human, read-out: Drug uptake
reported endpoint: concentration at 4 h
Hey, just the number and the unit after it is fine.

Request: Sample Cc1cccc(C)c1OCC(=O)N[C@@H](Cc1ccccc1)[C@@H](O)C[C@H](Cc1ccccc1)NC(=O)[C@H](C(C)C)N1CCCNC1=O [LOPINAVIR] — what was its concentration at 4 h?
Response: 10800 ng/mL

* * *

assay explanation: Cmax in HIV-infected Thai pregnant women at 100 mg, po bid initiated intrapartum in combination with 400 mg, po bid Lopinavir measured within 72 hrs postpartum
Type: ADME, organism-based
Design: dose 100 mg, route oral
stated conditions: female, human, in vivo
reported endpoint: Cmax (ng/mL)
Dear colleague, please return just the value in ng/mL, with no unit written.

Request: For CC(C)c1nc(CN(C)C(=O)N[C@H](C(=O)N[C@@H](Cc2ccccc2)C[C@H](O)[C@H](Cc2ccccc2)NC(=O)OCc2cncs2)C(C)C)cs1 , what is its reported Cmax?
Response: 600

* * *

Test system: Serum
assay explanation: Ratio of drug level in 4 hrs to 30 days post last dose of HIV-infected Thai pregnant women serum at 100 mg, po bid initiated intrapartum in combination with 400 mg, po bid Lopinavir
Format: ADME, organism-based
stated conditions: human, in vivo
reported endpoint: Drug uptake
Please reply with the value in numeric form only.

Request: Report Drug uptake for CC(C)c1nc(CN(C)C(=O)N[C@H](C(=O)N[C@@H](Cc2ccccc2)C[C@H](O)[C@H](Cc2ccccc2)NC(=O)OCc2cncs2)C(C)C)cs1 please.
Response: 0.68

* * *

assay explanation: Drug level in HIV-infected Thai pregnant women serum at 100 mg, po bid initiated intrapartum in combination with 400 mg, po bid Lopinavir measured 4 hrs post last dose
Format: ADME, organism-based
stated conditions: female, human, read-out: Drug uptake
reported endpoint: concentration at 4 h (ng/mL)
The reply should contain only the number, in ng/mL.

Request: Entry CC(C)c1nc(CN(C)C(=O)N[C@H](C(=O)N[C@@H](Cc2ccccc2)C[C@H](O)[C@H](Cc2ccccc2)NC(=O)OCc2cncs2)C(C)C)cs1 : reported concentration at 4 h = ?
Response: 580

* * *

assay explanation: Drug level in HIV-infected Thai pregnant women serum at 100 mg, po bid initiated intrapartum administered for 30 days in combination with 400 mg, po bid Lopinavir measured 4 hrs post last dose
Assay type: ADME, organism-based
stated conditions: female, human, read-out: Drug uptake
reported endpoint: concentration at 4 h (ng/mL)
Write the value in ng/mL as a bare number.

Request: Form field: reported concentration at 4 h of CC(C)c1nc(CN(C)C(=O)N[C@H](C(=O)N[C@@H](Cc2ccccc2)C[C@H](O)[C@H](Cc2ccccc2)NC(=O)OCc2cncs2)C(C)C)cs1
Response: 810

* * *

assay explanation: Drug level in HIV-infected Thai pregnant women serum at 100 mg, po bid initiated intrapartum in combination with 400 mg, po bid Lopinavir measured 12 hrs post last dose
Format: ADME, organism-based
stated conditions: female, human, read-out: Drug uptake
reported endpoint: concentration at 12 h (ng/mL)
Your answer is read as ng/mL, so omit the unit and give the number.

Request: For the molecule CC(C)c1nc(CN(C)C(=O)N[C@H](C(=O)N[C@@H](Cc2ccccc2)C[C@H](O)[C@H](Cc2ccccc2)NC(=O)OCc2cncs2)C(C)C)cs1 , what concentration at 12 h is on record?
Response: 100

* * *

assay explanation: Cmax in HIV-infected Thai pregnant women at 400 mg, po bid initiated intrapartum in combination with 100 mg, po bid ritonavir measured within 72 hrs postpartum
Format: ADME, organism-based
Parameters: dose 400 mg, route oral
stated conditions: female, human, in vivo
reported endpoint: Cmax (ng/mL)
Give just the number in ng/mL; leave the unit off.

Request: Give the measured Cmax of Cc1cccc(C)c1OCC(=O)N[C@@H](Cc1ccccc1)[C@@H](O)C[C@H](Cc1ccccc1)NC(=O)[C@H](C(C)C)N1CCCNC1=O [LOPINAVIR] .
Response: 11200

* * *

assay explanation: Tmax in HIV-infected Thai pregnant women at 400 mg, po bid initiated intrapartum in combination with 100 mg, po bid ritonavir measured within 72 hrs postpartum
Type: ADME, organism-based
stated conditions: female, human, in vivo
reported endpoint: Tmax
Give the figure together with its unit, number first.

Request: Can you share its Tmax? I mean this compound: Cc1cccc(C)c1OCC(=O)N[C@@H](Cc1ccccc1)[C@@H](O)C[C@H](Cc1ccccc1)NC(=O)[C@H](C(C)C)N1CCCNC1=O [LOPINAVIR]
Response: 3.9 h

* * *

Test system: Serum
assay explanation: Ratio of drug level in 2 hrs to 30 days post last dose of HIV-infected Thai pregnant women serum at 400 mg, po bid initiated intrapartum in combination with 100 mg, po bid ritonavir
Type: ADME, organism-based
stated conditions: human, in vivo
reported endpoint: Drug uptake
// return just the number, without any unit appended

Request: # input compound: Cc1cccc(C)c1OCC(=O)N[C@@H](Cc1ccccc1)[C@@H](O)C[C@H](Cc1ccccc1)NC(=O)[C@H](C(C)C)N1CCCNC1=O ; wanted: its Drug uptake
Response: 0.85

* * *

assay explanation: Drug level in HIV-infected Thai pregnant women serum at 100 mg, po bid initiated intrapartum administered for 30 days in combination with 400 mg, po bid Lopinavir measured before administering last dose
Type: ADME, organism-based
stated conditions: female, human, read-out: Drug uptake
reported endpoint: concentration at 720 h
The reply should consist of the numeric value with the unit placed after it.

Request: Can you look up the measured concentration at 720 h of CC(C)c1nc(CN(C)C(=O)N[C@H](C(=O)N[C@@H](Cc2ccccc2)C[C@H](O)[C@H](Cc2ccccc2)NC(=O)OCc2cncs2)C(C)C)cs1 for me?
Response: 290 ng/mL

* * *

assay explanation: Drug level in HIV-infected Thai pregnant women serum at 400 mg, po bid initiated intrapartum administered for 30 days in combination with 100 mg, po bid ritonavir measured 4 hrs post last dose
Format: ADME, organism-based
stated conditions: female, human, read-out: Drug uptake
reported endpoint: concentration at 4 h (ng/mL)
Report the value in ng/mL with no unit label.

Request: Suppose we examine the compound Cc1cccc(C)c1OCC(=O)N[C@@H](Cc1ccccc1)[C@@H](O)C[C@H](Cc1ccccc1)NC(=O)[C@H](C(C)C)N1CCCNC1=O [LOPINAVIR] ; what concentration at 4 h value has been reported?
Response: 13000

* * *

Test system: Serum
assay explanation: Ratio of drug level before intrapartum initiation to 30 days pre-last dose of HIV-infected Thai pregnant women serum at 100 mg, po bid in combination with 400 mg, po bid Lopinavir
Type: ADME, organism-based
stated conditions: human, in vivo, 720 h
reported endpoint: Drug uptake
Just the number, please.

Request: Fill blank: measured Drug uptake of the molecule CC(C)c1nc(CN(C)C(=O)N[C@H](C(=O)N[C@@H](Cc2ccccc2)C[C@H](O)[C@H](Cc2ccccc2)NC(=O)OCc2cncs2)C(C)C)cs1 [RITONAVIR] is ____.
Response: 0.54

* * *

Tested on: Serum
assay explanation: Ratio of drug level in 4 hrs to 30 days post last dose of HIV-infected Thai pregnant women serum at 400 mg, po bid initiated intrapartum in combination with 100 mg, po bid ritonavir
Format: ADME, organism-based
stated conditions: human, in vivo
reported endpoint: Drug uptake
Could you keep your reply to the number by itself?

Request: Item under review: Cc1cccc(C)c1OCC(=O)N[C@@H](Cc1ccccc1)[C@@H](O)C[C@H](Cc1ccccc1)NC(=O)[C@H](C(C)C)N1CCCNC1=O [LOPINAVIR] . Reported Drug uptake?
Response: 0.81
